Test system: Jurkat
PROTOCOL_TEXT: Inhibition of NF-kappaB-mediated TNF expression in human Jurkat T cells coexpressing GFP reporter gene at 10 uM by flow cytometry
Format: cell-based
REPORTED_METRIC: inhibition (%)

> print(dat)
                                   compound  measurement.target  unit.spec  observed.result
1  CC(C)Cc1ccc(-c2cccc3c2C(=O)N(C2CCC(=O)NC2=O)C3=O)cc1 (racemic)              Jurkat          %                7
2  CC(C)Oc1ccc(-c2ccc3c(c2)C(=O)N(C2CCC(=O)NC2=O)C3=O)cc1 (racemic)              Jurkat          %               10
3  O=C1CCC(N2C(=O)c3ccccc3C2=O)C(=O)N1 (racemic) [THALIDOMIDE]              Jurkat          %                4
4  CC(C)Oc1ccc(-c2cccc3c2C(=O)N(C2CCC(=O)NC2=O)C3=O)cc1 (racemic)              Jurkat          %                8
5  CC(C)Cc1ccc(-c2ccc3c(c2)C(=O)N(C2CCC(=O)NC2=O)C3=O)cc1 (racemic)              Jurkat          %                5
6  O=CC#Cc1ccc2c(c1)C(=O)N(C1CCC(=O)NC1=O)C2=O (racemic)              Jurkat          %               86

---

System: Jurkat
PROTOCOL_TEXT: Cytotoxicity against human Jurkat T cells assessed as cell death at 10 uM after 24 hrs by flow cytometry
Assay type: functional
REPORTED_METRIC: Activity (%)

> print(dat)
                                   molecule  unit.spec  observed.result
1  CC(C)Oc1ccc(-c2ccc3c(c2)C(=O)N(C2CCC(=O)NC2=O)C3=O)cc1 (racemic)          %               14
2  O=C1CCC(N2C(=O)c3ccccc3C2=O)C(=O)N1 (racemic) [THALIDOMIDE]          %                6
3  O=CC#Cc1ccc2c(c1)C(=O)N(C1CCC(=O)NC1=O)C2=O (racemic)          %               86
4  CC(C)Cc1ccc(-c2ccc3c(c2)C(=O)N(C2CCC(=O)NC2=O)C3=O)cc1 (racemic)          %                6

---

Tested on: Jurkat
PROTOCOL_TEXT: Induction of apoptosis in human Jurkat T cells at 100 uM after 24 hrs by flow cytometry
Type: functional
# Activity per entry
REPORTED_METRIC: Activity (%)

> print(dat)
                                   compound  reported.metric  observed.result
1  CC(C)Cc1ccc(-c2ccc3c(c2)C(=O)N(C2CCC(=O)NC2=O)C3=O)cc1 (racemic)         Activity               22
2  CC(C)Oc1ccc(-c2cccc3c2C(=O)N(C2CCC(=O)NC2=O)C3=O)cc1 (racemic)         Activity               30
3  O=C1CCC(N2C(=O)c3ccccc3C2=O)C(=O)N1 (racemic) [THALIDOMIDE]         Activity                9
4  CC(C)Cc1ccc(-c2cccc3c2C(=O)N(C2CCC(=O)NC2=O)C3=O)cc1 (racemic)         Activity               96
5  CC(C)Oc1ccc(-c2ccc3c(c2)C(=O)N(C2CCC(=O)NC2=O)C3=O)cc1 (racemic)         Activity               34
